Attribution: patent EP0978517A2

Target: human A1 adenosine Receptor (Homo sapiens, UniProt P30542)
Sequence (P30542 whole entry): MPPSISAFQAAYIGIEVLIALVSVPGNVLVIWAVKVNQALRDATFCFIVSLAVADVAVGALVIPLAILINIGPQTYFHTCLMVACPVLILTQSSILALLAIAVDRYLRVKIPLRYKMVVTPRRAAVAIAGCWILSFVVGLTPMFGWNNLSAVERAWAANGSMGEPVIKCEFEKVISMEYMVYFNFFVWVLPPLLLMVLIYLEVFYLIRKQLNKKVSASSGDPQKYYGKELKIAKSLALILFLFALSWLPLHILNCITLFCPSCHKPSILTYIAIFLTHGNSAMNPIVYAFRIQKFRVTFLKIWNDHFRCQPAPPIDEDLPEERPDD
pKi: −log10 of the molar value.
property-label: pKi

A: CCCCn1c2nc(C3CCCC3)[nH]c2c(=O)n2nc(Cc3ccccc3)nc12
B: CCn1c2nc(C3CCCC3)[nH]c2c(=O)n2ncnc12
C: Cn1c2nc(C3CCCC3)[nH]c2c(=O)n2nc(Cc3ccccc3)nc12
List the 3 entries from lowest pKi to highest pKi value. Please list each label once, in the requested order.
B, A, C
(B: 7.09, A: 8.08, C: 8.72)

I: CCCCc1nc2n(CCC)c3nc(C4CCCC4)[nH]c3c(=O)n2n1
II: CCn1c2nc(C3CCCC3)[nH]c2c(=O)n2nc(Cc3ccccc3)nc12
Among I and II , whose measured pKi is the smaller figure? // output: label of the selected item
I

1: CCCn1c2nc(N3CCOCC3)[nH]c2c(=O)n2nc(Cc3ccccc3)nc12
2: CCCn1c2nc(C3CCCC3)[nH]c2c(=O)n2nc(-c3ccco3)nc12
API: POST /compare with 1 and 2 ; response names the item with higher pKi. // output: label of the selected item
1

====

Hi! I'm sharing some Ki results obtained with human A3-adenosine receptor (Homo sapiens, UniProt P0DMS8).
Sequence (P0DMS8 whole entry): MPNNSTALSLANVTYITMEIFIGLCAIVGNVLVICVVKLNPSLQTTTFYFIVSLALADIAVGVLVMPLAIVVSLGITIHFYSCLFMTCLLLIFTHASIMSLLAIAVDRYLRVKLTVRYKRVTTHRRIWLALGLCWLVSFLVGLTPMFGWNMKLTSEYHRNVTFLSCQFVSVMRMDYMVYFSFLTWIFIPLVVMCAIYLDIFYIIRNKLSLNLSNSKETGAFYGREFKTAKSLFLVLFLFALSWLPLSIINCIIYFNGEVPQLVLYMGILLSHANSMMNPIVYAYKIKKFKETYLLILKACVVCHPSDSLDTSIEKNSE
property-label: Ki (nM)

Example results:
# compound, Ki, nM
rows = [
    ("O=c1c2[nH]cnc2[nH]c2nc(C3CCCC3)nn12 [Beispiel 19]", 3.8),
    ("CCCCc1nc2n(CCC)c3nc(C4CCCC4)[nH]c3c(=O)n2n1 [Beispiel 38]", 22),
    ("CCCn1c2nc(CC)[nH]c2c(=O)n2nc(Cc3ccccc3)nc12 [Beispiel 6]", 2),
    ("CCCCn1c2nc[nH]c2c(=O)n2nc(Cc3ccccc3)nc12 [Beispiel 4]", 2.3),
    ("CCCCCn1c2nc(C3CCCC3)[nH]c2c(=O)n2nc(Cc3ccccc3)nc12 [Beispiel 25]", 26),
]

a: CCn1c2nc(C(C)(C)C)[nH]c2c(=O)n2nc(Cc3ccccc3)nc12 [compound 68]
b: CCc1nc2c([nH]1)c(=O)n1nc(CCc3ccccc3)nc1n2CC [compound 78]
API: POST /compare with a and b ; response names the item with higher Ki. // output: label of the selected item
a
(a: 30 nM, b: 5.3 nM)

====

Hi! I'm sharing some Ki results obtained with A2-Rezeptor (Rattus norvegicus).
Sequence (P30543 whole entry): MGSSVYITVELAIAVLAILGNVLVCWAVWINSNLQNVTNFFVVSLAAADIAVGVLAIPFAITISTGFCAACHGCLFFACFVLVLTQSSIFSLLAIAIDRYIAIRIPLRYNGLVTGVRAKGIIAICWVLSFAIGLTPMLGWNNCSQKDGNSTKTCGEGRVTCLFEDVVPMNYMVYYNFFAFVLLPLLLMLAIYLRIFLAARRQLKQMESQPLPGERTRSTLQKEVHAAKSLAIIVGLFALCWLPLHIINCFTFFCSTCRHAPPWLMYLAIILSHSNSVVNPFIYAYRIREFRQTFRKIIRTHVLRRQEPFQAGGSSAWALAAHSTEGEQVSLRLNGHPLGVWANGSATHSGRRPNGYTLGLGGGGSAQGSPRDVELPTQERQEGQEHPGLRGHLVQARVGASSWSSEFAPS
property-label: Ki (nM)

# substance-smiles, value-units, Ki
measured = [
    ("CCCCc1nc2n(CCC)c3nc(C4CCCC4)[nH]c3c(=O)n2n1", "nM", 532),
    ("CCn1c2nc(C3CCCC3)[nH]c2c(=O)n2ncnc12", "nM", 3290),
    ("CCCCCn1c2nc(C3CCCC3)[nH]c2c(=O)n2nc(Cc3ccccc3)nc12", "nM", 1230),
]

P: CCCn1c2nc(C3CCCC3)[nH]c2c(=O)n2nc(C(C)C)nc12
Q: CCCn1c2nc(C3CCCC3)[nH]c2c(=O)n2nc(Cc3ccccc3)nc12
R: CCCc1nc2c([nH]1)c(=O)n1nc(Cc3ccccc3)nc1n2CCC
Rank the 3 molecules: largest Ki first, smallest last. Please list each label once, in the requested order.
Q, P, R
(Q: 730 nM, P: 307 nM, R: 158 nM)
